System: monoclonal antibody of clone C-3 (anti-dioxin antibody)
Assay: Competitive EIA: inhibition of binding of clone C-3 monoclonal antibody to solid-phase antigen by free dioxin
Parameters: species or system mouse
Details: solid-phase antigen immunogen 3, dioxin compound final concentration 5×10^−7 M
Result type: Inhibition rate (%)
// units = %; emit number, no label

Consider the reported Inhibition rate for these compounds:
[
  {
    "Compound": "Clc1cc2oc3cc(Cl)c(Cl)c(Cl)c3c2c(Cl)c1Cl [1,2,3,7,8,9-HxCDF]",
    "Target desc": "monoclonal antibody of clone C-3 (anti-dioxin antibody)",
    "Inhibition rate / %": 10.4
  },
  {
    "Compound": "Clc1cc2c(oc3cc(Cl)c(Cl)c(Cl)c32)c(Cl)c1Cl [1,2,3,6,7,8-HxCDF]",
    "Target desc": "monoclonal antibody of clone C-3 (anti-dioxin antibody)",
    "Inhibition rate / %": 2.9
  },
  {
    "Compound": "Clc1cc2c(c(Cl)c1Cl)Oc1c(cc(Cl)c(Cl)c1Cl)O2 [1,2,3,7,8,9-HxCDD]",
    "Target desc": "monoclonal antibody of clone C-3 (anti-dioxin antibody)",
    "Inhibition rate / %": 6.7
  },
  {
    "Compound": "Clc1cc2oc3cc(Cl)c(Cl)cc3c2cc1Cl [2,3,7,8-TeCDF]",
    "Target desc": "monoclonal antibody of clone C-3 (anti-dioxin antibody)",
    "Inhibition rate / %": "−1.6"
  },
  {
    "Compound": "Clc1cc2oc3cc(Cl)c(Cl)c(Cl)c3c2cc1Cl [1,2,3,7,8-PeCDF]",
    "Target desc": "monoclonal antibody of clone C-3 (anti-dioxin antibody)",
    "Inhibition rate / %": 0.5
  }
]

Data request: So what's the measured Inhibition rate for this one? Clc1cc2c(cc1Cl)Oc1c(cc(Cl)c(Cl)c1Cl)O2 [1,2,3,7,8-PeCDD]
Data returned: 5.4

Data request: So what's the measured Inhibition rate for this one? Clc1c(Cl)c(Cl)c2c(c1Cl)Oc1c(Cl)c(Cl)c(Cl)c(Cl)c1O2 [OCDD]
Data returned: −0.4

Data request: So what's the measured Inhibition rate for this one? Clc1cc2c(cc1Cl)Oc1c(Cl)c(Cl)c(Cl)c(Cl)c1O2 [1,2,3,4,7,8-HxCDD]
Data returned: −2.5

Data request: So what's the measured Inhibition rate for this one? Clc1cc2c(oc3c(Cl)c(Cl)c(Cl)c(Cl)c32)c(Cl)c1Cl [1,2,3,4,6,7,8-HpCDF]
Data returned: −2.7

----------
System: monoclonal antibody of clone C-3 (anti-dioxin antibody)
Test: Competitive EIA: inhibition of binding of clone C-3 monoclonal antibody to solid-phase antigen by free dioxin
Design: species or system mouse
Conditions: solid-phase antigen immunogen 3, dioxin compound final concentration 5×10^−7 M
Result type: Inhibition rate (%)
// units = %; emit number, no label

Consider the reported Inhibition rate for these molecules:
[
  {
    "Query smiles": "Clc1c(Cl)c(Cl)c2c(oc3c(Cl)c(Cl)c(Cl)c(Cl)c32)c1Cl",
    "Unit name": "%",
    "Inhibition rate": 1.3
  },
  {
    "Query smiles": "Clc1cc2oc3c(Cl)c(Cl)c(Cl)cc3c2cc1Cl",
    "Unit name": "%",
    "Inhibition rate": 13.0
  },
  {
    "Query smiles": "Clc1cc2c(cc1Cl)Oc1cc(Cl)c(Cl)cc1O2",
    "Unit name": "%",
    "Inhibition rate": "−0.2"
  },
  {
    "Query smiles": "Clc1cc2c(c(Cl)c1Cl)Oc1c(Cl)c(Cl)c(Cl)c(Cl)c1O2",
    "Unit name": "%",
    "Inhibition rate": 0.4
  },
  {
    "Query smiles": "Clc1cc2c(oc3c(Cl)c(Cl)c(Cl)cc32)c(Cl)c1Cl",
    "Unit name": "%",
    "Inhibition rate": 13.2
  },
  {
    "Query smiles": "Clc1cc2oc3c(Cl)c(Cl)c(Cl)c(Cl)c3c2cc1Cl",
    "Unit name": "%",
    "Inhibition rate": 4.9
  },
  {
    "Query smiles": "Clc1cc2c(c(Cl)c1Cl)Oc1cc(Cl)c(Cl)c(Cl)c1O2",
    "Unit name": "%",
    "Inhibition rate": 3.9
  }
]

Shift focus to the following entry.
Data request: So what's the measured Inhibition rate for this one? Clc1cc2oc3c(Cl)c(Cl)c(Cl)c(Cl)c3c2c(Cl)c1Cl
Data returned: 6.1
